# target-system: purified recombinant human PARP (Homo sapiens, UniProt P09874)
# Construct: purchased Trevigan (Gaithersburg, Md.)
# Sequence (P09874 whole entry): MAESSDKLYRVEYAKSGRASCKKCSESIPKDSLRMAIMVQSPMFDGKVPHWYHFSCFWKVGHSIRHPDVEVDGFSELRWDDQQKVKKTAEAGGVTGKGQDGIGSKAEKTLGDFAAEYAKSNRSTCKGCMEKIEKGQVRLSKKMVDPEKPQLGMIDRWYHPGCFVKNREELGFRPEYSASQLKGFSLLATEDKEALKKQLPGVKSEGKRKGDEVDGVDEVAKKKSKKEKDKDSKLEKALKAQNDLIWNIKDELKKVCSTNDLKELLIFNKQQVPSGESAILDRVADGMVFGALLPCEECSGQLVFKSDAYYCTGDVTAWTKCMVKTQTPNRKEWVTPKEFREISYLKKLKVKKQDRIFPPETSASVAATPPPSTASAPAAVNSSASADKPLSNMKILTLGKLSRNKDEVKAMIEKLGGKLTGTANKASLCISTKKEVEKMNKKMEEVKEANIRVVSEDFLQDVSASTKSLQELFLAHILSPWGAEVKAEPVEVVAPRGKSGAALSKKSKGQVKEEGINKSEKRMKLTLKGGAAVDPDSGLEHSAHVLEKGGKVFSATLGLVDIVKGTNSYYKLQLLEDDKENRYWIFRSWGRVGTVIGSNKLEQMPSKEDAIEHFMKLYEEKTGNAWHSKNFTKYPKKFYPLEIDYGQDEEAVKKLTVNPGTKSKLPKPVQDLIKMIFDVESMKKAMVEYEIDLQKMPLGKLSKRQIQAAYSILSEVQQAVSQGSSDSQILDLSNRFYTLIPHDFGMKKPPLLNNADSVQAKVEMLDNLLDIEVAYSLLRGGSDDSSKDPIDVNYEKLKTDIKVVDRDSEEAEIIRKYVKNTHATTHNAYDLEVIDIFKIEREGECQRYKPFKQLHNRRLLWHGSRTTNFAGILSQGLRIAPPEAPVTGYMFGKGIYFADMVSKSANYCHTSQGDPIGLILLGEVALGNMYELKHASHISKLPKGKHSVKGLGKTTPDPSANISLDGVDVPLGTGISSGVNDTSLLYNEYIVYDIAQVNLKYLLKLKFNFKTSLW
# assay-info: PARP enzyme assay, [3H]NAD incorporation, IC50
# Assay type: biochemical
# test-parameters: approximate values, PARP enzyme assay; read-out: IC50
pIC50: −log10 of the molar value.
observable: pIC50

INSERT INTO results (compound, recorded_result) VALUES
  ('CN(C)CCCN(C)CC(=O)N1CCc2[nH]c(=O)c3ccccc3c2C1 [Compound 16a]', 6.37),
  ('O=C(CCN1CCCCC1CO)N1CCc2[nH]c(=O)c3ccccc3c2C1 (stereo not drawn) [Compound 17f]', 6.36),
  ('O=C(NCCN1CCCCC1)N1CCc2[nH]c(=O)c3ccccc3c2C1 [Compound 21o]', 6.98),
  ('O=C(C1CCCN1)N1CCc2[nH]c(=O)c3ccccc3c2C1 (stereo not drawn) [Compound 21d]', 6.57),
  ('O=C(CN1CCc2ccccc2C1)N1CCc2[nH]c(=O)c3ccccc3c2C1 [Compound 16h]', 5.80),
  ('CC(O)CNCC(=O)N1CCc2[nH]c(=O)c3ccccc3c2C1 (stereo not drawn) [Compound 16c]', 6.38),
  ('CN1CCN(CCCC(=O)N2CCc3[nH]c(=O)c4ccccc4c3C2)CC1 [Compound 18b]', 6.62),
  ('CN(C)CCCC(=O)N1CCc2[nH]c(=O)c3ccccc3c2C1 [Compound 18h]', 6.82),
  ('O=C(CCCNC[C@@H]1CCCO1)N1CCc2[nH]c(=O)c3ccccc3c2C1 [Compound 18o]', 6.49),
  ('CN(C)CCN(C)CCC(=O)N1CCc2[nH]c(=O)c3ccccc3c2C1 [Compound 17e]', 6.41),
  ('CN(C)CCCN(C)CCC(=O)N1CCc2[nH]c(=O)c3ccccc3c2C1 [Compound 17a]', 6.55),
  ('O=C(CN1CC=CCC1)N1CCc2[nH]c(=O)c3ccccc3c2C1 [Compound 16m]', 6.67),
  ('CC(O)CNCCC(=O)N1CCc2[nH]c(=O)c3ccccc3c2C1 (stereo not drawn) [Compound 17c]', 5.66),
  ('O=C1CCN(CCC(=O)N2CCc3[nH]c(=O)c4ccccc4c3C2)CC1 [Compound 17k]', 6.95),
  ('O=C(CNC[C@H](O)CO)N1CCc2[nH]c(=O)c3ccccc3c2C1 [Compound 16i]', 6.18),
  ('O=C(CCN1CCCCC1)N1CCc2nc(O)c3ccccc3c2C1 [Compound 17i]', 7.15),
  ('CN(C)CCCN(C)CCCC(=O)N1CCc2[nH]c(=O)c3ccccc3c2C1 [Compound 18a]', 6.73),
  ('O=C(c1cccc(S(=O)(=O)N2CCc3[nH]c(=O)c4ccccc4c3C2)c1)N1CCC(N2CCCC2)CC1 [Compound 23b]', 6.52);

---

Known pIC50 of a selection of compounds
# target-system: purified recombinant human PARP (Homo sapiens, UniProt P09874)
# Construct: purchased Trevigan (Gaithersburg, Md.)
# assay-info: PARP enzyme assay, [3H]NAD incorporation, IC50
# Assay type: biochemical
# test-parameters: approximate values, PARP enzyme assay; read-out: IC50
pIC50: −log10 of the molar value.
observable: pIC50

INSERT INTO results (compound, observable, recorded_result) VALUES
  ('O=C(CCCNC[C@H]1CCCO1)N1CCc2[nH]c(=O)c3ccccc3c2C1 [Compound 18p]', 'pIC50', 6.78),
  ('C[C@H](CO)NCCCC(=O)N1CCc2[nH]c(=O)c3ccccc3c2C1 [Compound 18q]', 'pIC50', 6.60),
  ('O=C(CCCN1CC=CCC1)N1CCc2[nH]c(=O)c3ccccc3c2C1 [Compound 18m]', 'pIC50', 6.39),
  ('O=C(CCCN1CCCCC1CO)N1CCc2[nH]c(=O)c3ccccc3c2C1 (stereo not drawn) [Compound 18f]', 'pIC50', 6.17),
  ('CCOC(=O)C1CCN(CC(=O)N2CCc3[nH]c(=O)c4ccccc4c3C2)CC1 [Compound 16k]', 'pIC50', 6.87),
  ('C=CS(=O)(=O)N1CCc2[nH]c(=O)c3ccccc3c2C1 [Compound 22c]', 'pIC50', 6.53),
  ('CC(O)CNCCCC(=O)N1CCc2[nH]c(=O)c3ccccc3c2C1 (stereo not drawn) [Compound 18c]', 'pIC50', 7.06),
  ('NC(Cc1ccccc1)C(=O)N1CCc2[nH]c(=O)c3ccccc3c2C1 (stereo not drawn) [Compound 21i]', 'pIC50', 5.91),
  ('O=C(CCCl)N1CCc2[nH]c(=O)c3ccccc3c2C1 [Compound 14a]', 'pIC50', 6.73),
  ('O=C(CCNCCc1ccccc1F)N1CCc2[nH]c(=O)c3ccccc3c2C1 [Compound 17m]', 'pIC50', 6.79),
  ('O=C(CCCN1CCN(CCO)CC1)N1CCc2[nH]c(=O)c3ccccc3c2C1 [Compound 18g]', 'pIC50', 6.32),
  ('O=C(CCCN1CCCCC1)N1CCc2[nH]c(=O)c3ccccc3c2C1 [Compound 18j]', 'pIC50', 6.34),
  ('O=C(CCCNCCc1ccccc1F)N1CCc2[nH]c(=O)c3ccccc3c2C1 [Compound 18n]', 'pIC50', 5.88),
  ('O=C(CCN1CCc2ccccc2C1)N1CCc2[nH]c(=O)c3ccccc3c2C1 [Compound 17g]', 'pIC50', 6.61),
  ('CCOC(=O)C1CCN(CCC(=O)N2CCc3[nH]c(=O)c4ccccc4c3C2)CC1 [Compound 17j]', 'pIC50', 6.25),
  ('CN(CCCC(=O)N1CCc2[nH]c(=O)c3ccccc3c2C1)CC(=O)OC(C)(C)C [Compound 18d]', 'pIC50', 6.31),
  ('O=C(CN1CCCCC1CO)N1CCc2[nH]c(=O)c3ccccc3c2C1 (stereo not drawn) [Compound 16e]', 'pIC50', 6.07),
  ('CN1CCN(CC(=O)N2CCc3[nH]c(=O)c4ccccc4c3C2)CC1 [Compound 16b]', 'pIC50', 5.78),
  ('CC(C)C(N)C(=O)N1CCc2[nH]c(=O)c3ccccc3c2C1 (stereo not drawn) [Compound 21c]', 'pIC50', 6.16),
  ('CN1CCN(CCC(=O)N2CCc3[nH]c(=O)c4ccccc4c3C2)CC1 [Compound 17b]', 'pIC50', 5.74),
  ('O=C(c1cccc(CCl)c1)N1CCc2c([nH]c(=O)c3ccccc23)C1 [Compound 21p]', 'pIC50', 6.10),
  ('CCOC(=O)C1CCN(CCCC(=O)N2CCc3[nH]c(=O)c4ccccc4c3C2)CC1 [Compound 18k]', 'pIC50', 6.32),
  ('O=c1[nH]c2c(c3ccc(F)cc13)CN(Cc1ccccc1)CC2', 'pIC50', 6.74),
  ('N[C@H](Cc1ccc(O)cc1)C(=O)N1CCc2[nH]c(=O)c3ccccc3c2C1 [Compound 21k]', 'pIC50', 5.43),
  ('O=C(CN1CCN(CCO)CC1)N1CCc2[nH]c(=O)c3ccccc3c2C1 [Compound 16f]', 'pIC50', 4.88),
  ('O=C(CCNC[C@H](O)CO)N1CCc2[nH]c(=O)c3ccccc3c2C1 [Compound 17h]', 'pIC50', 6.60),
  ('CN(CCC(=O)N1CCc2[nH]c(=O)c3ccccc3c2C1)CC(=O)OC(C)(C)C [Compound 17d]', 'pIC50', 6.74),
  ('O=c1[nH]c2c(c3ccccc13)CN(Cc1ccccc1)CC2', 'pIC50', 6.47),
  ('CC(=O)N1CCc2[nH]c(=O)c3ccccc3c2C1 [Compound 21n]', 'pIC50', 7.24),
  ('O=C(O)c1cccc(S(=O)(=O)N2CCc3[nH]c(=O)c4ccccc4c3C2)c1 [Compound 22a]', 'pIC50', 7.44),
  ('O=C1CCN(CCCC(=O)N2CCc3[nH]c(=O)c4ccccc4c3C2)CC1 [Compound 18l]', 'pIC50', 6.60),
  ('NCC(=O)N1CCc2[nH]c(=O)c3ccccc3c2C1 [Compound 21a]', 'pIC50', 7.05),
  ('O=c1[nH]c2c(c3ccccc13)CCN(Cc1ccccc1)C2', 'pIC50', 6.66),
  ('O=C1CCN(CC(=O)N2CCc3[nH]c(=O)c4ccccc4c3C2)CC1 [Compound 16l]', 'pIC50', 6.53),
  ('CN(C)CCN(C)CCCC(=O)N1CCc2[nH]c(=O)c3ccccc3c2C1 [Compound 18e]', 'pIC50', 6.31),
  ('O=C(CCCNCC1(O)CCCCC1)N1CCc2[nH]c(=O)c3ccccc3c2C1 [Compound 18s]', 'pIC50', 6.81);
